The entries below are paired with their reported TGI.
tested on: MCF7 breast; experiment: NCI tumour cell line growth inhibition, 48 h

| Compound | TGI |
| --- | --- |
| c1ccc(-c2nc(-c3ccccc3)c(-c3ccccc3)[nH]2)cc1 | > 100 µM |
| NC1=NC(c2ccc(Cl)cc2)C2=C(N1)/C(=C/c1ccc(Cl)cc1)CCC2 (stereo not given) | > 100 µM |
| Oc1[nH]c2ccccc2c1N=Nc1nc(-c2ccc(Cl)c(Cl)c2)cs1 | > 100 µM |
| C#CC(F)(F)[C@]1(O)CC[C@H]2[C@@H]3CCC4=CC(=O)CCC4=C3[C@@H](c3ccc(C(C)=O)cc3)C[C@@]21C | 63 µM |

State measured TGI of the compound "O=c1cc(N2CCCC2)[nH]c(=O)n1-c1cccc(C(F)(F)F)c1" with MCF7 breast.
> 100 µM
